Tested on: MS2 coat protein
assay details: apparent KD of MS2 coat protein; designed switch direction (-1 OFF switch, 1 ON switch): -1; higher = weaker reporter binding
conditions: Eterna round: R95; input ligand: none
Listing of entries alongside the reported apparent KD of MS2 coat protein.
Report the value in nM with no unit label.

Recorded apparent KD of MS2 coat protein, per entry:
| seq string | unit | apparent KD of MS2 coat protein |
| --- | --- | --- |
| UUUUAGAGAGGAUAUAUUAUGUGAAACAUGAGGAUCACCCAUGUAAUAUAAUGGAUGUAAAUAGAAGGCUCAUUUA [Mat - Exclusion 5 - JL mod - D22] (puzzle: Exclusion 5) | nM | 41.1 |
| UAUUAACAAGCUAGGUCCCACAUGAGGAUCACCCAUGUGCUCGUCUUAUAAGGUACUGUGACGAAAGUCACGGUACC [Sensor 3, v1 - 79] (puzzle: Sensor v3, turn-off variant 1) | nM | 31.5 |
| UGGCUGCUUAUGGAGUGUGACAUGAGGAUCACCCAUGUGGUAGUAAGGAACAAGCUUUUUACACGUACUUAUAAAGC [JR_SV3TOV1_Sub012] (puzzle: Sensor v3, turn-off variant 1) | nM | 438 |
| CGUACUGAAGUGAGGAUAUUGUCUCGGAUACGAAACAAGAAGGCACAUGAGGAUCACCCAUGUAGACAGUACGA [Malc #30 mod 2] (puzzle: Brourd's mod of Exclusion 4) | nM | 15.7 |

// below: apparent KD of MS2 coat protein requested for another sequence
Reported apparent KD of MS2 coat protein for AGUAGGUCUACCUUGGUGGAUCUGCAUAAUGCAAGUGUUACAUGAGGAUCACCCAUGUCCUCAUUUGCUCGUCUUAU [JL turnoff v2 99.22] (puzzle: Sensor v3, turn-off variant 2) was 43.5

* * *

System: MS2 coat protein
assay details: apparent KD of MS2 coat protein; designed switch direction (-1 OFF switch, 1 ON switch): 1; higher = weaker reporter binding
conditions: Eterna round: R95; input ligand: none
measured property: apparent KD of MS2 coat protein

Recorded apparent KD of MS2 coat protein, per entry:
| seq string | apparent KD of MS2 coat protein |
| --- | --- |
| AGUCCAGCCUGAGCUGGACAAAAGCAUGUACAUGAGGAUCACCCAUGUUCAUGUACAAGCUUUUUGCUCGUCUUAAG [salish99_208a_r3_028] (puzzle: Sensor for hsa-mir-208a) | 602 nM |
| GGUCCCUACGCACAGGAUAUUCUUUUGGCAACAUGAGGAUCACCCAUGUGUGCCGAUCAUGGUUAGAAGAAGGGUGGUAGGGACG [Cesovexe] (puzzle: Same State 2) | 16.8 nM |
| AACAAUCUAUCUGAGGAUAUCAUGAAUUAAACAUGAGGAUCACCCAUGUGCAGGAAAACUGCAUAUGAGAAGGCAGAUAGAUUGA [salish99_ss2_r3_032] (puzzle: Same State 2) | 58.7 nM |
| GGUCCAGCCUGAGCUGGACAAAAGCAUGUACAUGAGGAUCACCCAUGUCAUGUACAAGCUUUUUGCUCGUCUUGAAA [JL mod - D87 - 8] (puzzle: Sensor for hsa-mir-208a) | 867 nM |
| GGCUAUCGGCGUACCGAUAGCUGGUAUGUACAUGAGGAUCACCCAUGUCAUGUACAGGCUUUUUGCUCGUCUUAUUG [JL-shm-2.39 JL mod] (puzzle: Sensor for hsa-mir-208a) | 149 nM |

The measured apparent KD of MS2 coat protein that GGGCCAGCUUGUGCUGGGCCUUCGCAUGCACAUGAGGAUCACCCAUGUCGUGUACAUGCUUGGUGCCCGUCUUUCCC [Photon Torp-14] (puzzle: Sensor for hsa-mir-208a) showed for MS2 coat protein is 85.8 nM

The measured apparent KD of MS2 coat protein that UCUUGGUUUUUGCUCGUUUUUUGUGUUGAACAUGAGGAUCACCCAUGUAUUGUACGGUCCAAUUUAGUGGUAGUCCG [JMF 67] (puzzle: Sensor for hsa-mir-208a) showed for MS2 coat protein is 38.7 nM

The measured apparent KD of MS2 coat protein that AGUGAACAUGAGGAUCACCCAUGUGAGAGAAGUGUAGGAUAUGUGAGGAGCAGAGGAGGGACAGAAGGACAUGGAG [JR_SS!_Sub074] (puzzle: Same State 1) showed for MS2 coat protein is 51.8 nM

The measured apparent KD of MS2 coat protein that ACAGAGUGAAGACAGGAUAUUCGCGAUGGCACAUGAGGAUCACCCAUGUUUUGAGCACAUAAACAGAAGAAGGGUUAAAACUCAG [Zadier] (puzzle: Same State 2) showed for MS2 coat protein is 362 nM

The measured apparent KD of MS2 coat protein that AGUCCAGCCUGAGCUGGACAAAAGCAUGUACAUGAGGAUCACCCAUGUUCAUGUACAAGCUUUUUGCUCGAAUUAAA [Mat - hsa-mir-208a - Mod of JL - 53] (puzzle: Sensor for hsa-mir-208a) showed for MS2 coat protein is 822 nM

* * *

Listing of entries alongside the reported apparent KD of MS2 coat protein.
Test system: MS2 coat protein
assay details: apparent KD of MS2 coat protein; designed switch direction (-1 OFF switch, 1 ON switch): -1; higher = weaker reporter binding
conditions: Eterna round: R95; input ligand: none
Report the value in nM with no unit label.

Recorded apparent KD of MS2 coat protein, per entry:
| seq string | apparent KD of MS2 coat protein, nM |
| --- | --- |
| CCAGGCAGUGUGAGGAUAUGCUGGUGGAUACAUCAGCAGAAGGCACAUGAGGAUCACCCAUGUGAAGAGCUUGG [Mat - Exclusion 4 - JL Mod - D99] (puzzle: Brourd's mod of Exclusion 4) | 20.5 |
| CUCUUGUCAGGAUAUCAACGCCGCCCACACGGGCGGCGAAAUGAGAAGGGACAUGAGGAUCACCCAUGUUAAAA [Orsoesarqu] (puzzle: Exclusion 4) | 212 |

Reported apparent KD of MS2 coat protein for CUGGUCCGAGGAUAUAUUAUGUGAAACAUGAGGAUCACCCAUGUAAUAUGAUGGAUGAAAAUAGAAGGCGGACUAG [Mat - Exclusion 5 - JL mod - D30] (puzzle: Exclusion 5) was 61

Reported apparent KD of MS2 coat protein for CCGGAAUAACAGGAUAUAGGAGUCGAUAGACACCUAGAAGGGUUGACAUGAGGAUCACCCAUGUGUCCUACCGG [Fiskers Ex 6 - 81] (puzzle: Exclusion 6) was 595

Reported apparent KD of MS2 coat protein for GAUUGACAUGAGGAUCACCCAUGUGAGGAUAUCGGCUGGACCGUGUUGGCUUGCUUUUCGAGAAGGCGCAUAGG [Exclusion 1 V49] (puzzle: Exclusion 1) was 35

* * *

System: MS2 coat protein
assay details: apparent KD of MS2 coat protein; designed switch direction (-1 OFF switch, 1 ON switch): 1; higher = weaker reporter binding
conditions: input ligand: FMN 200 uM
Listing of entries alongside the reported apparent KD of MS2 coat protein.
The reply must contain the numeric value and, after it, the unit.

| seq string | apparent KD of MS2 coat protein |
| --- | --- |
| UGCCUGAGUCGAGGAUAUUAUGGAUCCUCUAAUACAUGAGGAUCACCCAUGUAAUUAAUUAUACAUGAGAAGGCGACUCAGGCA [SSNG2/12-A2] (Eterna round: R96, puzzle: Same State NG 2) | 278 nM |
| GCUCGCACGAUGACCCACAUGAGGAUCACCCAUGUGCUUGGGCAGGAUAUCUAGAUUAAGGAUGUAGAGAAGGGUCGAGCGAGC [SameState NG3 #28] (Eterna round: R96, puzzle: Same State NG 3) | 303 nM |
| UGUUGUAUUACAGGAUAUCUAGCAUUUUUAUUUAGAGAAGGGUAUUCACAUGAGGAUCACCCAUGUAUAUACGAGGAAGUUGUG [JMF's solution 32] (Eterna round: R96, puzzle: Same State NG 1) | 54.9 nM |
| GCUCGGCUGAUGGCCUACAUGAGGAUCACCCAUGUGAGUGGGCAGGAUAUCUAGAUUAAGGAUGUAGAGAAGGGCCUGCCGAGC [SameState NG3 #37] (Eterna round: R96, puzzle: Same State NG 3) | 708 nM |
| AUAAACAGGCUAGGAUAUCCGGAAACUACAGGGCACGACCCUGUGGACAUGAGGAUCACCCAUGUGGAGAAGGAGCCACAUGAA [Edlatibi] (Eterna round: R96, puzzle: Same State NG 2) | 15.1 nM |

Reported apparent KD of MS2 coat protein for ACAUGAGGAUCACCCAUGUAGGCUCAGGAAACUGUGCCACAUGAGGAUAUGGAUCCUAAUUGGAUCCAGAAGGCAUGAUUUAUU [Fiskers NG3ss - 21] (Eterna round: R96, puzzle: Same State NG 3) was 243 nM

Reported apparent KD of MS2 coat protein for GGAGCCAAGGCAGGAUAUUCAUAUAAAUAAACAUGAGGAUCACCCAUGUAGGCCAGAAGGCCUUGGGAGAAGGGCCAUGGCUCG [Xeonanis - 13 mod6] (Eterna round: R96, puzzle: Same State NG 2) was 19.4 nM

Reported apparent KD of MS2 coat protein for UGGCUGGUGCUAGGAUAUGCAUGAGGCCUCCUCGUAGAAGGAGCACGACAUGAGGAUCACCCAUGUGGCCGUCCGUAGACGGCU [salish99_SSNG1_r04_013] (Eterna round: R96, puzzle: Same State NG 1) was 62.5 nM

Reported apparent KD of MS2 coat protein for UUGAACAAUUAAGGAUAUCGAGUACAUAUGUUAAACAUGAGGAUCACCCAUGUGGGUUGCGGUAUCGAGAAGGUAAAUUAGAAG [Mat - Same State NG 2 - JL mod - D57] (Eterna round: R96, puzzle: Same State NG 2) was 22.8 nM
